Origin of values: patent US12673052B2

- TEST_NAME: Phase 1 first-in-human Study Compound 1-001 (NCT03845166): plasma pharmacokinetics
- Format: in vivo
- CONDITION_LABEL: human, plasma, oral, 20 mg, 20 mg PIB; First Dose (Day 1); median (min, max); read-out: Tmax
RECORDED_METRIC: Tmax (h)
Numbers only, in h.

Need Tmax, item "CNC(=O)c1cc2c(Oc3ccc(NC(=O)C4(C(=O)Nc5ccc(F)cc5)CC4)cc3)ccnc2cc1OC" 2

###

- TEST_NAME: Phase 1 first-in-human Study Compound 1-001 (NCT03845166): plasma pharmacokinetics
- Type: in vivo
- CONDITION_LABEL: human, plasma, oral, first dose, tablets 20 to 80 mg; read-out: median Tmax
RECORDED_METRIC: Tmax

Reported Tmax for "CNC(=O)c1cc2c(Oc3ccc(NC(=O)C4(C(=O)Nc5ccc(F)cc5)CC4)cc3)ccnc2cc1OC" : what is it? 2 to 6 h

###

- TEST_NAME: In vitro plasma protein binding
- Format: in vitro ADME, monkey
- CONDITION_LABEL: monkey, plasma; 0.2 and 1 μM
RECORDED_METRIC: fraction unbound

Given CNC(=O)c1cc2c(Oc3ccc(NC(=O)C4(C(=O)Nc5ccc(F)cc5)CC4)cc3)ccnc2cc1OC [Compound 1] , state its recorded fraction unbound. < 0.01

###

- TEST_SYSTEM: CYP2C19 (Homo sapiens)
- Sequence (P33261 whole entry): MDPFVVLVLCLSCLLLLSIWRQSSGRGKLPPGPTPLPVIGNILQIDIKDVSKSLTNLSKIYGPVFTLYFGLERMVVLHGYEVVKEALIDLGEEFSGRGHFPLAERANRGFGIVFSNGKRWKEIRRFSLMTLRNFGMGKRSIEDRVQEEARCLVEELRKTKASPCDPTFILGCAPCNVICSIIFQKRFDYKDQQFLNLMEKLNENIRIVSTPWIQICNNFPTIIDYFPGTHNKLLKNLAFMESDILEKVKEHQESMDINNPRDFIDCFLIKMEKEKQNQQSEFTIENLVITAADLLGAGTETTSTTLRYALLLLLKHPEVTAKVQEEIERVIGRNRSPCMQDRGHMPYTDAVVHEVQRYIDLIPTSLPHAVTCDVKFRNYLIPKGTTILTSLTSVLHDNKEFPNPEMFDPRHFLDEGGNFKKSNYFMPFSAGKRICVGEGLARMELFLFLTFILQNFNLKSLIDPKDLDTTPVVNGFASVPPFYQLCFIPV
RECORDED_METRIC: Ki (nM)
Answers are plain numbers, in nM.

Find the recorded Ki belonging to "CNC(=O)c1cc2c(Oc3ccc(NC(=O)C4(C(=O)Nc5ccc(F)cc5)CC4)cc3)ccnc2cc1OC" and report it. 1360

###

- TEST_NAME: Phase 1 first-in-human Study Compound 1-001 (NCT03845166): plasma pharmacokinetics
- Assay type: in vivo
- CONDITION_LABEL: human, plasma, oral, 20 mg, PIB 10 and 20 mg; steady-state Day 28; read-out: mean terminal half-life (t1/2) (converted)
- Method: The maximum tolerated dose (MTD) and/or recommended dose (RD) of Compound 1 single-agent therapy and ICI combination therapy will be determined in a Dose-Escalation Stage. The preliminary efficacy of Compound 1 as single agent and as ICI combination therapy will be determined in a Cohort-Expansion Stage with tumor-specific expansion cohorts. As of 14 Dec. […] As of 14 Dec. […] In addition, PK of Compound 1 was evaluated when given in the combination with atezolizumab. […]
RECORDED_METRIC: half-life at 28 days

Which value of half-life at 28 days has been reported for "CNC(=O)c1cc2c(Oc3ccc(NC(=O)C4(C(=O)Nc5ccc(F)cc5)CC4)cc3)ccnc2cc1OC" in the records? ~1200 min

###

- TEST_NAME: Single-dose plasma PK, IV and oral (PEG 400:EtOH:RO water)
- Assay type: in vivo, dogs
- CONDITION_LABEL: beagle, dog, plasma; single-dose IV; read-out: mean plasma t1/2, z (converted)
RECORDED_METRIC: half-life

Please look up its half-life: CNC(=O)c1cc2c(Oc3ccc(NC(=O)C4(C(=O)Nc5ccc(F)cc5)CC4)cc3)ccnc2cc1OC [Compound 1] ~240 min

###

- TEST_NAME: Phase 1 first-in-human Study Compound 1-001 (NCT03845166): plasma pharmacokinetics
- Assay type: in vivo
- CONDITION_LABEL: human, plasma, oral, 20 mg, 20 mg Tablet; First Dose (Day 1); mean ± SD; read-out: AUC0-24
RECORDED_METRIC: AUC(0-t) (ng·h/mL)
One number for each entry, in ng·h/mL.

What measured AUC(0-t) goes with CNC(=O)c1cc2c(Oc3ccc(NC(=O)C4(C(=O)Nc5ccc(F)cc5)CC4)cc3)ccnc2cc1OC [Compound 1] ? 3680

###

- TEST_NAME: Single-dose plasma PK, IV and oral (PEG 400:EtOH:RO water)
- Assay type: in vivo, rats
- CONDITION_LABEL: rat, plasma; single-dose IV; read-out: mean volume of distribution at steady-state (Vss)
- Procedure: Plasma PK of Compound 1 was characterized in rats and beagle dogs. Toxicokinetic (TK) evaluations of oral Compound 1 were evaluated in repeat-dose studies in rats and dogs. Plasma protein binding was determined in mouse, rat, dog, monkey, and human plasma in vitro. Biotransformation and metabolite profiling of Compound 1 were investigated in vitro using mouse, rat, dog, monkey, and human liver microsomal fractions and hepatocytes and in vivo in rats and dogs. […]
RECORDED_METRIC: Vd (L/kg)
One number for each entry, in L/kg.

For the compound "CNC(=O)c1cc2c(Oc3ccc(NC(=O)C4(C(=O)Nc5ccc(F)cc5)CC4)cc3)ccnc2cc1OC" , what Vd is on record? 0.167

###

- TEST_NAME: Phase 1 first-in-human Study Compound 1-001 (NCT03845166): plasma pharmacokinetics
- Type: in vivo
- CONDITION_LABEL: human, plasma, oral, 40 mg, 40 mg Tablet; First Dose (Day 1); median (min, max); read-out: Tmax
RECORDED_METRIC: Tmax (h)
Numbers only, in h.

Given "CNC(=O)c1cc2c(Oc3ccc(NC(=O)C4(C(=O)Nc5ccc(F)cc5)CC4)cc3)ccnc2cc1OC" , state its recorded Tmax. 5

###

- TEST_NAME: Phase 1 first-in-human Study Compound 1-001 (NCT03845166): plasma pharmacokinetics
- Format: in vivo
- CONDITION_LABEL: human, plasma, oral, 20 mg, 20 mg Tablet; Steady-State (Day 28); median (min, max); read-out: Tmax
RECORDED_METRIC: Tmax

Which measured Tmax value corresponds to "CNC(=O)c1cc2c(Oc3ccc(NC(=O)C4(C(=O)Nc5ccc(F)cc5)CC4)cc3)ccnc2cc1OC" ? 1 h

###

- TEST_NAME: GLP safety pharmacology: cardiovascular, telemeterized dogs
- Type: in vivo
- CONDITION_LABEL: dog, plasma, oral; single dose 18 mg/kg, male telemeterized dogs
RECORDED_METRIC: Cmax

Which measured Cmax value corresponds to CNC(=O)c1cc2c(Oc3ccc(NC(=O)C4(C(=O)Nc5ccc(F)cc5)CC4)cc3)ccnc2cc1OC [Compound 1] ? ~7 µM

###

- TEST_SYSTEM: UniProt:P08183
- Sequence (P08183 whole entry): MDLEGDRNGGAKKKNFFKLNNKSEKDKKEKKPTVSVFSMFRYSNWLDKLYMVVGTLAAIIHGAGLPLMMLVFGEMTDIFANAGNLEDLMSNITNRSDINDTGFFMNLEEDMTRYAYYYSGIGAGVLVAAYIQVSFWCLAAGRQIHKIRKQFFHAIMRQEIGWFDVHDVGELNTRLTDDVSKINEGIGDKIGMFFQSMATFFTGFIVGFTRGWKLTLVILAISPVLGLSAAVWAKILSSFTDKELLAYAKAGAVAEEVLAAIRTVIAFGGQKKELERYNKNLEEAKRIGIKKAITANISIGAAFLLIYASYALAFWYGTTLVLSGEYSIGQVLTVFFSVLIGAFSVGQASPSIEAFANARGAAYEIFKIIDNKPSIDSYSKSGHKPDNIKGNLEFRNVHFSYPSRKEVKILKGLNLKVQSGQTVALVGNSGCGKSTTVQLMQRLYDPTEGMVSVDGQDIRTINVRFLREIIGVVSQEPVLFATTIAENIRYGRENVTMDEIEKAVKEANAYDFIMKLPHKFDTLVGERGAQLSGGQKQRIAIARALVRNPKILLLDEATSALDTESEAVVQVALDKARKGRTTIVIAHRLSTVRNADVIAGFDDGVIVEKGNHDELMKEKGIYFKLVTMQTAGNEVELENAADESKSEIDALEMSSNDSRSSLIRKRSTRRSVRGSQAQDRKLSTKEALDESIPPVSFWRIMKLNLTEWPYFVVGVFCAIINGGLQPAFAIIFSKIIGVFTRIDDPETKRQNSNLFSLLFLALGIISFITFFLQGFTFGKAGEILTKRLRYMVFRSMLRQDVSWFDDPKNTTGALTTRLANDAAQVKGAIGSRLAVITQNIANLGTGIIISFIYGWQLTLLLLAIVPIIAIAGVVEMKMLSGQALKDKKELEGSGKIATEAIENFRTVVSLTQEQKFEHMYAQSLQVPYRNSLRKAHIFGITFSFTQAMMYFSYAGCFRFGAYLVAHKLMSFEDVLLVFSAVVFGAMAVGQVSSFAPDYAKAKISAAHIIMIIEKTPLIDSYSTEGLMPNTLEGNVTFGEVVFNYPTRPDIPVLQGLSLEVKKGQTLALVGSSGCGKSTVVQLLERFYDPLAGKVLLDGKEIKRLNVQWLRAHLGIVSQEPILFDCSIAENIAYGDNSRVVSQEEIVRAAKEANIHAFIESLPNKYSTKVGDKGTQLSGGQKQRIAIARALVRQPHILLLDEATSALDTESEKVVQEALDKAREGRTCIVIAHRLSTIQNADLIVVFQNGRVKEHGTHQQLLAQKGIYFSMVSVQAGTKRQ
- TEST_NAME: Transporter interaction study (substrate and inhibition)
- CONDITION_LABEL: strong inhibitor
RECORDED_METRIC: pIC50
Give bare numbers, as −log10 of the molar value.

Could you tell me which pIC50 is on file for CNC(=O)c1cc2c(Oc3ccc(NC(=O)C4(C(=O)Nc5ccc(F)cc5)CC4)cc3)ccnc2cc1OC [Compound 1] ? 7.23

###

- TEST_NAME: Phase 1 first-in-human Study Compound 1-001 (NCT03845166): plasma pharmacokinetics
- Assay type: in vivo
- CONDITION_LABEL: human, plasma, oral, 10 mg, 10 mg PIB; Steady-State (Day 28); mean ± SD; read-out: AUC0-24
RECORDED_METRIC: AUC(0-t) (ng·h/mL)
Give bare numbers, in ng·h/mL.

Param item = "CNC(=O)c1cc2c(Oc3ccc(NC(=O)C4(C(=O)Nc5ccc(F)cc5)CC4)cc3)ccnc2cc1OC" ; retrieve measured AUC(0-t). 971

###

- TEST_SYSTEM: CYP 2B6 (Homo sapiens)
- Sequence (P20813 whole entry): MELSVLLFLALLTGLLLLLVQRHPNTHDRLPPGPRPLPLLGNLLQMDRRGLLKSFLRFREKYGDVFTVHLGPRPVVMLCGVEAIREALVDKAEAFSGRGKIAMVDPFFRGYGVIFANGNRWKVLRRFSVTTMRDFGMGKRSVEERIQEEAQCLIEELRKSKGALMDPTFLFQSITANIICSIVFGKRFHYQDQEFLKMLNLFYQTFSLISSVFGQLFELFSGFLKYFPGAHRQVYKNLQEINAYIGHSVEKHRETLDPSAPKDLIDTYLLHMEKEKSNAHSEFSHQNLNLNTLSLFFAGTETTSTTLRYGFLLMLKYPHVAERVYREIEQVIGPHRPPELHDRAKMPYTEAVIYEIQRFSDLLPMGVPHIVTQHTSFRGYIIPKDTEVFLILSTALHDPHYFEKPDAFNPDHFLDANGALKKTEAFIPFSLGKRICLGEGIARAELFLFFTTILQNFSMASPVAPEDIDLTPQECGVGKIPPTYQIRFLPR
RECORDED_METRIC: IC50

Endpoint output: IC50 of "CNC(=O)c1cc2c(Oc3ccc(NC(=O)C4(C(=O)Nc5ccc(F)cc5)CC4)cc3)ccnc2cc1OC" . Value? > 33 µM

###

- TEST_NAME: Toxicokinetics in 28-day repeat-dose toxicity study
- Format: in vivo, rats
- CONDITION_LABEL: both sexes, rat, plasma, oral, Day 28; read-out: Half-life (t1/2)
RECORDED_METRIC: half-life

Record request: half-life value, item "CNC(=O)c1cc2c(Oc3ccc(NC(=O)C4(C(=O)Nc5ccc(F)cc5)CC4)cc3)ccnc2cc1OC" 6.7 to 8.97 h

###

- TEST_NAME: Phase 1 first-in-human Study Compound 1-001 (NCT03845166): plasma pharmacokinetics
- Format: in vivo
- CONDITION_LABEL: human, plasma, oral, 40 mg, 40 mg Tablet; Steady-State (Day 28); median (min, max); read-out: Tmax
RECORDED_METRIC: Tmax (h)
Answers are plain numbers, in h.

Fill in: Tmax of CNC(=O)c1cc2c(Oc3ccc(NC(=O)C4(C(=O)Nc5ccc(F)cc5)CC4)cc3)ccnc2cc1OC [Compound 1] is ___ 3

###

- Tested on: CYP2C8
- TEST_NAME: Cytochrome P450 induction (mRNA levels) in fresh primary human hepatocytes
- Type: in vitro ADME
- CONDITION_LABEL: human, fresh primary human hepatocytes; mRNA induction; read-out: half-maximal effective concentration (EC50)
RECORDED_METRIC: EC50 (nM)
Give bare numbers, in nM.

May I ask what EC50 has been recorded for CNC(=O)c1cc2c(Oc3ccc(NC(=O)C4(C(=O)Nc5ccc(F)cc5)CC4)cc3)ccnc2cc1OC [Compound 1] ? 2010
